- experiment notes: Pharmacokinetics of guanfacine and prodrug in rat hepatic portal and tail veins after oral prodrug
- Format: in vivo
- cond: hepatic portal vein plasma, 1 mg/kg, read-out: Hepatic portal vein Prodrug AUC
readout: AUC (ng·h/mL)
Just the number in ng·h/mL, nothing appended.

Query string: Look at this molecule and give its reported AUC. "CCOC(=O)NC(N)=NC(=O)Cc1c(Cl)cccc1Cl.Cl"
Result string: 397

----------
- experiment notes: Solubility
- cond: 2.5 mL CH3CN/1 mL H2O, aqueous with cosolvent or surfactant or cyclodextrin, Solubility, in 2.5 mL CH3CN/1 mL H2O
readout: solubility

Query string: Which measured solubility value corresponds to "CC(C)[C@@H]1CC[C@@H](C)C[C@H]1OC(=O)NC(N)=NC(=O)Cc1c(Cl)cccc1Cl.Cl" ?
Result string: > 1430 µg/mL
